# credit: patent US20210255193A1

- measurement-target: PFKP (Homo sapiens, UniProt Q01813)
- Construct: Flag; expressed in transfected cells; host or cells: HEK 293T, transient transfection, soluble lysate; cDNA clone 5180268 (Dharmacon)
- Sequence (Q01813 whole entry): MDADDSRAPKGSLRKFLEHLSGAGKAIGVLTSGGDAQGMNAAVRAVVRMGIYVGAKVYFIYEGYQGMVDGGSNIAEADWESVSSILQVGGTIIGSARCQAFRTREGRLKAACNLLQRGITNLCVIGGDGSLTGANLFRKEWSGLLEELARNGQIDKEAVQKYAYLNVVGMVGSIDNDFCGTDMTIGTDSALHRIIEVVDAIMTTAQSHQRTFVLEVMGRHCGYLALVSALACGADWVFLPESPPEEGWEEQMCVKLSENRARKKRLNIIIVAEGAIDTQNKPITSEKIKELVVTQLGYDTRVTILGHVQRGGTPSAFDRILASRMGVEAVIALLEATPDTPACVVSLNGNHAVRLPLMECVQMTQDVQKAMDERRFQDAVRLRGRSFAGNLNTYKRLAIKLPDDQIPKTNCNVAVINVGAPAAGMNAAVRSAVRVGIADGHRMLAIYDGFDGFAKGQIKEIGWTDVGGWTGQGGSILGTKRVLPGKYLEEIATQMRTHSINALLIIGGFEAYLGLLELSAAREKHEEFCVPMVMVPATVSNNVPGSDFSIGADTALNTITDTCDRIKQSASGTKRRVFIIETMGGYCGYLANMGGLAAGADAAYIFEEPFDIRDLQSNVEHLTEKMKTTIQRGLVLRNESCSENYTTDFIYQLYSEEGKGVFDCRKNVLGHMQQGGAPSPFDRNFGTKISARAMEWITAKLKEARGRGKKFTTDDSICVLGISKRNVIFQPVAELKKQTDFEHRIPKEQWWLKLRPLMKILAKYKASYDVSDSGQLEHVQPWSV
- assay-overview: competitive gel-based ABPP, apparent IC50
- Assay type: binding
- applied-conditions: read-out: apparent IC50, blockade of probe labeling of recombinant PFKP
endpoint-label: pIC50
Interpret pIC50 as the negative base-10 log of the concentration measured in mol/L.

get_value(item= O=C(Oc1c(F)c(F)c(F)c(F)c1F)C(c1ccccc1)c1ccccc1 [fragment 20, Pentafluorophenyl 2,2-diphenylacetate] , readout=pIC50) returns 5.70

----------
Here the recorded isoTOP-ABPP ratio, lysine Q13011_K112 is given for each entry.
- measurement-target: ECH1 Delta(3,5)-Delta(2,4)-dienoyl-CoA isomerase, mitochondrial (Homo sapiens)
- Construct: isoTOP-ABPP experiments performed in cell lysates (in vitro); endogenous in cells; host or cells: soluble proteome of human cancer cell lines (MDA-MB-231, Ramos, Jurkat)
- Sequence (Q13011 34-328): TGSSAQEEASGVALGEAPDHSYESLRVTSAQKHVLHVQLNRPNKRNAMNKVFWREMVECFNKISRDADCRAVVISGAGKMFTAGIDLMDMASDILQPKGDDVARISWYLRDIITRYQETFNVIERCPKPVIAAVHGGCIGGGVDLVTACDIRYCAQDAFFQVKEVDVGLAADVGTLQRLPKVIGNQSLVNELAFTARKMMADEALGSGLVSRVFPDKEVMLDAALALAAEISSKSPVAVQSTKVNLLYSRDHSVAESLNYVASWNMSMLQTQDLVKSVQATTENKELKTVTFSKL
- assay-overview: competitive isoTOP-ABPP
- Type: binding
- applied-conditions: 50 uM_231_sol_in vitro
Give a plain numeric answer without units written out.

O=C(Oc1c(F)c(F)cc(F)c1F)c1cc(C(F)(F)F)cc(C(F)(F)F)c1 [fragment 48]: 1.5

Record O=C(Oc1c(F)c(F)c(C(F)(F)F)c(F)c1F)c1cc(C(F)(F)F)cc(C(F)(F)F)c1 [fragment 47] . Reported isoTOP-ABPP ratio, lysine Q13011_K112: 1.0

Notebook: N#Cc1ccc(C(=O)Oc2ccc([N+](=O)[O-])cc2[N+](=O)[O-])cc1 [fragment 44, 2,4-Dinitrophenyl 4-cyanobenzoate] , isoTOP-ABPP ratio, lysine Q13011_K112 read as 0.9
